These data points were gathered from patent US10065941B2.

- target of assay: human P2X3 receptor (Homo sapiens (Human), UniProt P56373)
- Sequence (P56373 whole entry): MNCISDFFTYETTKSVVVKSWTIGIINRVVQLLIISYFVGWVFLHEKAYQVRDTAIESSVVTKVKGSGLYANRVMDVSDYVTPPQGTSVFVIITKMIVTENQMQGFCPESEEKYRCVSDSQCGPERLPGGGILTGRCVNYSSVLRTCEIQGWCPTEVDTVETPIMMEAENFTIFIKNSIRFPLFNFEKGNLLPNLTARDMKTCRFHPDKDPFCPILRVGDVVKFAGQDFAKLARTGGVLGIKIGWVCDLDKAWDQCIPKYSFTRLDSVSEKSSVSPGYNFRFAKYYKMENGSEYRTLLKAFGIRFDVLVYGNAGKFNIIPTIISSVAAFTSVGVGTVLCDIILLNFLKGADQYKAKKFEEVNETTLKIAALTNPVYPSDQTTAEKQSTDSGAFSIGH
- method description: Evaluation of human P2X3 receptor inhibitory activity (Test Example 1)
- run parameters: C6BU-1 cell transfected with human P2X3 receptor gene, FLIPR 384

smiles entry | measurement units | IC50
COc1cc(Oc2ccc(/N=c3\[nH]c(=O)n([C@@H](C)[C@@H](C)C(=O)O)c(=O)n3Cc3ccc(Cl)cc3)cc2)cc(F)n1 | nM | 5
CCc1oc2ccc(/N=c3\[nH]c(=O)n([C@H]4C[C@@H](C(=O)O)C4)c(=O)n3Cc3ccc(Cl)cc3)cc2c1C | nM | 18
Cc1nc(Oc2ccc(/N=c3\[nH]c(=O)n(CC(C)(C)C(=O)O)c(=O)n3Cc3ccc(Cl)cc3)cc2)no1 | nM | 65
